# TEST TARGET: Env of HIV-1 strain 251-18 (HIV-1)
# TEST: cell-based or functional assay
MEASUREMENT NAME: neutralization IC50 (µg/mL)
Numbers only, in µg/mL.

Req: For the binder γ52κ18 (antibody, V domains shown) VH: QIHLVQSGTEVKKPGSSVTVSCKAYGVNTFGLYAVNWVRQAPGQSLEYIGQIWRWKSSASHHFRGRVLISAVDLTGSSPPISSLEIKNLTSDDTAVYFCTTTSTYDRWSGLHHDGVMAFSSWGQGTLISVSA VL: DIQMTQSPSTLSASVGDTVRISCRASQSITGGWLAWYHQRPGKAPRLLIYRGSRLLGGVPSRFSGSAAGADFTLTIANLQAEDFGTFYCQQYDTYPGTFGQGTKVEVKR , what neutralization IC50 is on record?
Resp: 0.116
